Attribution: patent US20160355483A1

Biological target: CYP 2C19 (Homo sapiens, UniProt P33261)
Construct: purchased BD GENTEST 459400
Sequence (P33261 whole entry): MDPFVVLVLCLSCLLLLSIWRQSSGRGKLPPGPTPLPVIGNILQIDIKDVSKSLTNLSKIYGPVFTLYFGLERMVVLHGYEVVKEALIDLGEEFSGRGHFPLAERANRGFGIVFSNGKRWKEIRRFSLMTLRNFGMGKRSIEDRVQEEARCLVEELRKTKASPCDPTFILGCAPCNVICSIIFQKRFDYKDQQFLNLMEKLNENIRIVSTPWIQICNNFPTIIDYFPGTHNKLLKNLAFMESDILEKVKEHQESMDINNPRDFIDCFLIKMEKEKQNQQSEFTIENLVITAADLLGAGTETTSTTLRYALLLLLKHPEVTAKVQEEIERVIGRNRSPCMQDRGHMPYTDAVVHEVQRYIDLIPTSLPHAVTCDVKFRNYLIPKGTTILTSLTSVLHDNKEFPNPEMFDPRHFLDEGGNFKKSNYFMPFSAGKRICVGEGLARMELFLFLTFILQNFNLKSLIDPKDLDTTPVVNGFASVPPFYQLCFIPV
Assay: CYP (cytochrome P450)-suppressing effect, BD GENTEST kit
Assay type: in vitro ADME

{"columns": ["compound", "unit.abbreviation", "CYP(10 μL, %) 2C19"],
 "data": [
  ["C[C@H](NC(=O)c1ccc2c(c1)CCCN2Cc1ccc(-c2ccccc2C(=O)O)cc1)c1ccc(C#N)cc1", "%", 79.96],
  ["C[C@H](NC(=O)c1ccc2c(c1)OCCN2Cc1ccc(-c2ccccc2C(=O)O)cc1)c1ccc(C#N)cc1", "%", 91.36],
  ["C[C@H](NC(=O)c1ccc2c(c1)CCCN2Cc1ccc(-c2ccccc2C(N)=O)cc1F)c1ccc([N+](=O)[O-])cc1", "%", 54.70],
  ["C[C@H](NC(=O)c1ccc2c(c1)CCCN2Cc1ccc(-c2ccccc2C(N)=O)cc1)c1ccc2ccccc2c1", "%", 59.55],
  ["C[C@H](NC(=O)c1ccc2c(c1)CCCN2Cc1cccc(-c2ccccc2C(=O)O)c1)c1ccc(C#N)cc1", "%", 74.03],
  ["Cc1ccc([C@H](C)NC(=O)c2ccc3c(c2)CCCN3Cc2ccc(-c3ccccc3C(=O)[O-])cc2)cc1F.[Na+]", "%", 85.71],
  ["C[C@H](NC(=O)c1ccc2c(c1)CCCN2Cc1cc(-c2ccccc2C(N)=O)ccc1F)c1ccc([N+](=O)[O-])cc1", "%", 53.50],
  ["C[C@H](NC(=O)c1ccc2c(c1)CCCN2Cc1ccc(-c2ccccc2C(N)=O)cc1F)c1ccc2ccccc2c1", "%", 59.33],
  ["C[C@H](NC(=O)c1ccc2c(c1)CCCN2Cc1ccc(-c2ccccc2C(N)=O)cc1)c1ccc(F)cc1", "%", 52.68],
  ["C[C@H](NC(=O)c1ccc2c(c1)OCCN2Cc1ccc(-c2ccccc2C(=O)O)cc1)c1ccccc1", "%", 70.53],
  ["C[C@H](NC(=O)c1ccc2c(c1)CCCN2Cc1cccc(-c2ccccc2C(N)=O)c1)c1ccc([N+](=O)[O-])cc1", "%", 58.85],
  ["C[C@H](NC(=O)c1ccc2c(c1)CCCN2Cc1cccc(-c2ccccc2C(N)=O)c1F)c1ccc([N+](=O)[O-])cc1", "%", 54.84],
  ["Cc1c(C)n(Cc2ccc(-c3ccccc3C(=O)O)cc2)c2ccc(C(=O)NC(C)c3ccc(Br)cc3)cc12 (centres unmarked) [2 (SR1824), SR1824, reference compound]", "%", 32.45],
  ["C[C@H](NC(=O)c1ccc2c(c1)OCCN2Cc1ccc(-c2ccccc2C(N)=O)cc1)c1ccc2ccccc2c1", "%", 52.35]
]}

----------
Molecular target: CYP 2C19 (Homo sapiens, UniProt P33261)
Construct: purchased BD GENTEST 459400
Test: CYP (cytochrome P450)-suppressing effect, BD GENTEST kit
Assay type: in vitro ADME
Reported CYP(10 μL, %) 2C19 values for a set of compounds

{"columns": ["input.smiles", "CYP(10 μL, %) 2C19"],
 "data": [
  ["C[C@H](NC(=O)c1ccc2c(c1)OCCN2Cc1ccc(-c2ccccc2C(=O)O)cc1)c1ccc([N+](=O)[O-])cc1", 69.60],
  ["C[C@H](NC(=O)c1ccc2c(c1)CCCN2Cc1ccc(-c2ccccc2C(=O)O)cc1F)c1ccc(C#N)cc1", 69.53],
  ["C[C@H](NC(=O)c1ccc2c(c1)CCCN2Cc1ccc(-c2ccccc2C(=O)[O-])cc1)c1ccc(C#N)cc1.[Na+]", 75.69]
]}

----------
Target: CYP 2D6 (Homo sapiens, UniProt P10635)
Construct: purchased Invitrogen P2862
Sequence (P10635 whole entry): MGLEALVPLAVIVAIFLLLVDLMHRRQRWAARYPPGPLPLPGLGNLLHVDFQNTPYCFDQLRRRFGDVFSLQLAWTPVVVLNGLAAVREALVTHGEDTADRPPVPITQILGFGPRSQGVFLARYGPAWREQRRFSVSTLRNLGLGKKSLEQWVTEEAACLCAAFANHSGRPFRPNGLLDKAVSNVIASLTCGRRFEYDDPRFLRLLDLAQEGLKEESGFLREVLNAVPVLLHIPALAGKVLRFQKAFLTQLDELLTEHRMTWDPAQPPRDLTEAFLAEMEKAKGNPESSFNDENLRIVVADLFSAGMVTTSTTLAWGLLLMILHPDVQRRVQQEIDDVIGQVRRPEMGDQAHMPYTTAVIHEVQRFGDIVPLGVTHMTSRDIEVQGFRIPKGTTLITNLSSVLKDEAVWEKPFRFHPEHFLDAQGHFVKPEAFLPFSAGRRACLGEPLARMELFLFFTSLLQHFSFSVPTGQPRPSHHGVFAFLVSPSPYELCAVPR
Test: CYP (cytochrome P450)-suppressing effect, Invitrogen Vivid kit
Assay type: in vitro ADME
observation.type: CYP(10 μL, %) 2D6

{"columns": ["compound", "meas.value"],
 "data": [
  ["C[C@H](NC(=O)c1ccc2c(c1)CCCN2Cc1cc(-c2ccccc2C(N)=O)ccc1F)c1ccc([N+](=O)[O-])cc1 [Example 139]", 80.63],
  ["C[C@H](NC(=O)c1ccc2c(c1)CCCN2Cc1ccc(-c2ccccc2C(=O)[O-])cc1)c1ccc(C#N)cc1.[Na+] [Example 57]", 82.59],
  ["C[C@H](NC(=O)c1ccc2c(c1)CCCN2Cc1cccc(-c2ccccc2C(=O)O)c1)c1ccc(C#N)cc1 [Example 118]", 94.83],
  ["C[C@H](NC(=O)c1ccc2c(c1)CCCN2Cc1ccc(-c2ccccc2C(N)=O)cc1F)c1ccc([N+](=O)[O-])cc1 [Example 113]", 78.65]
]}

----------
Biological target: PPARG (peroxisome proliferator activated receptor-gamma), GST-PPARG-LBD (Homo sapiens, UniProt P37231)
Construct: 15 μL of 5 nM GST-PPARG-LBD and 5 nM Tb-GST-antibody were added; purchased Invitrogen PV4894
Sequence (P37231 238-503 limits assumed): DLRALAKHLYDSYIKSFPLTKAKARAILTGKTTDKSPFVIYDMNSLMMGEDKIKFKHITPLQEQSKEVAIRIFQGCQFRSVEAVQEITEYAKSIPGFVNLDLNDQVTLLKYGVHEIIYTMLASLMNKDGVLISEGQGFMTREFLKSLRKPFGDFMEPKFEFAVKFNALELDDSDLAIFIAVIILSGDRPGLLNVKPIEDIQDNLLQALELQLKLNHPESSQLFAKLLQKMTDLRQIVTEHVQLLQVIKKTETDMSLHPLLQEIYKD
Assay: LanthaScreen TR-FRET PPARG Competitive Binding Assay
Design: key: “+” indicates the degree of the binding activity, and as the number of “+” increases, the binding activity is stronger; ++: “+” indicates the degree of the binding activity, and as the number of “+” increases, the binding activity is stronger; +++: “+” indicates the degree of the binding activity, and as the number of “+” increases, the binding activity is stronger; ++++: “+” indicates the degree of the binding activity, and as the number of “+” increases, the binding activity is stronger
Settings: degree of binding activity
observation.type: Binding assay (1 μLM)

{"columns": ["input.smiles", "meas.value"],
 "data": [
  ["C[C@H](NC(=O)c1ccc2c(c1)CCCN2Cc1ccc(-c2ccccc2C(=O)O)cc1)c1ccc2ccccc2c1", "++++"],
  ["CC[C@H](NC(=O)c1ccc2c(c1)OCCN2Cc1ccc(-c2ccccc2C(=O)O)cc1)c1ccccc1", "+++"],
  ["O=C(NCc1cccc(OC(F)(F)F)c1)c1ccc2c(c1)CCCN2Cc1ccc(-c2ccccc2C(=O)O)cc1", "+++"],
  ["C[C@H](NC(=O)c1ccc2c(c1)CCCN2Cc1ccc(-c2ccccc2C(N)=O)cc1)c1cccc(F)c1", "+++"],
  ["Cc1ccc([C@H](C)NC(=O)c2ccc3c(c2)OCCN3Cc2ccccc2-c2ccc(C(=O)O)cc2)cc1F", "++"],
  ["NC(=O)c1ccccc1-c1ccc(CN2CCOc3cc(C(=O)NCc4ccncc4)ccc32)cc1", "+"],
  ["C[C@H](NC(=O)c1ccc2c(c1)OCCN2Cc1ccc(-c2ccccc2C(=O)O)cc1)c1ccc([N+](=O)[O-])cc1", "++"],
  ["Cc1cc(F)ccc1[C@H](C)NC(=O)c1ccc2c(c1)CCCN2Cc1ccc(-c2ccccc2C(=O)O)cc1", "+++"],
  ["C[C@H](NC(=O)c1ccc2c(c1)CCCN2Cc1cc(-c2ccccc2C(=O)O)ccc1F)c1ccccc1", "++++"],
  ["C[C@H](NC(=O)c1ccc2c(c1)CCCN2Cc1ccccc1-c1ccc(C(=O)O)cc1)c1ccc([N+](=O)[O-])cc1", "+"],
  ["C[C@H](NC(=O)c1ccc2c(c1)CCCN2Cc1ccc(-c2ccccc2C(N)=O)cc1)c1cccc(OC(F)(F)F)c1", "+++"],
  ["NC(=O)c1ccccc1-c1ccc(CN2CCCc3cc(C(=O)NCc4ccncc4)ccc32)cc1", "+"],
  ["C[C@H](NC(=O)c1ccc2c(c1)CCCN2Cc1ccc(-c2ccccc2C(=O)O)cc1)c1ccccc1", "+++"],
  ["Cc1ccc([C@H](C)NC(=O)c2ccc3c(c2)CCCN3Cc2ccc(-c3ccccc3C(N)=O)cc2)cc1F", "+++"],
  ["NC(=O)c1ccccc1-c1ccc(CN2CCCc3cc(C(=O)NCc4ccccc4)ccc32)cc1", "+++"],
  ["C[C@H](NC(=O)c1ccc2c(c1)OCCN2Cc1ccc(-c2ccccc2C(=O)O)cc1)c1ccc(Cl)cc1", "+"],
  ["C[C@H](NC(=O)c1ccc2c(c1)CCCN2Cc1ccc(-c2ccccc2C(N)=O)cc1F)c1ccc(C#N)cc1", "+++"],
  ["C[C@H](NC(=O)c1ccc2c(c1)CCCN2Cc1cccc(-c2ccccc2C(N)=O)c1)c1ccc([N+](=O)[O-])cc1", "+++"],
  ["C[C@H](NC(=O)c1ccc2c(c1)CCCN2Cc1ccc(-c2ccccc2C(=O)O)cc1)c1ccccc1F", "+++"],
  ["C[C@H](NC(=O)c1ccc2c(c1)CCCN2Cc1ccc(-c2ccccc2C(N)=O)cc1F)c1ccc2ccccc2c1", "+++"],
  ["COc1cccc([C@H](C)NC(=O)c2ccc3c(c2)CCCN3Cc2ccc(-c3ccccc3C(N)=O)cc2)c1", "+++"]
]}
